All figures here come from PubChem BioAssay (NCI).

Tested on: HL-60(TB) leukemia
Protocol Notes: NCI tumour cell line growth inhibition, 48 h
Metric: TGI

C[C@@H]1CC(=O)C2CCCC1C2=O (some centres not stated): > 100 µM
Cc1cn(C2CC(N(O)Cc3ccccc3)C(CO[Si](C)(C)C(C)(C)C)O2)c(=O)[nH]c1=O (configuration not stated): > 100 µM
O=C1CSC(c2cccc(Oc3ccccc3)c2)N1c1ccc(Cl)cc1 (configuration not stated): > 100 µM
COC1=CC(=O)c2nc(-c3cccc(C)n3)[nH]c2C1=O: > 100 µM
COc1cc(/C=C2/C[C@H]3[C@@H]4CC=C5C[C@@H](O)CC[C@]5(C)[C@H]4CC[C@]3(C)NC2=O)cc(OC)c1OC: > 100 µM
COc1cc2c(cc1OC)C(CC(=O)NN=C(C)C)NCC2 (configuration not stated): > 100 µM
O=C(NI1OC(=O)c2ccccc21)c1ccc(Cl)cc1: > 100 µM
C[N+](C)(C)CC1CCCCCCCCCCC1=O (configuration not stated): > 100 µM
COC1(OC)C2(Cl)C(Cl)=C(Cl)C1(Cl)C1C=CC=CC12 (configuration not stated): > 100 µM
C=CC(CCc1ccc(C(=O)OCC)cc1)c1c(N)nc(N)[nH]c1=O (configuration not stated): > 100 µM
COc1cc2c3c(n(CCCNC(=O)OCC4c5ccccc5-c5ccccc54)c(=O)c2cc1OC)-c1cc2c(cc1/C3=C\CCNC(=O)OCC1c3ccccc3-c3ccccc31)OCO2: > 50 µM
OC[C@H]1CCCC1O (some centres not stated): > 100 µM

====

// reported TGI per item
System: SK-MEL-2 melanoma
Protocol Notes: NCI tumour cell line growth inhibition, 48 h
Metric: TGI

COc1cc2ncnc(Nc3ccc(C)c(O)c3)c2cc1OC: > 20 µM
COC(=O)/C(=N\Nc1nnc(C)n1N)C(C#N)c1ccc(Cl)cc1 (centres undefined): > 100 µM
CC12C(=O)CC(CC1=O)C2(C)C: > 100 µM
CC1NC(=O)CC(c2ccccc2)N(N=O)C1c1ccccc1 (centres undefined): > 85.9 µM
CCOC(=O)N/N=C(/N)c1cccc([N+](=O)[O-])c1: > 100 µM
O=c1[nH]nc(-c2ccccc2)c2[nH]c3c4ccccc4ccc3c12: > 100 µM
COC(=O)C1=C(C)N(NC(=O)OC(C)(C)C)C(=O)C1=P(c1ccccc1)(c1ccccc1)c1ccccc1: > 100 µM
O=c1cc(-c2ccc(F)cc2)[nH]c2ncc(Cl)cc12: > 100 µM
Oc1cccnc1CN1CCCCC1: > 100 µM
COc1cc2c3c(n(CCCNC(=O)OCC4c5ccccc5-c5ccccc54)c(=O)c2cc1OC)-c1cc2c(cc1/C3=C\CCNC(=O)OCC1c3ccccc3-c3ccccc31)OCO2: > 21.6 µM
Cc1nc(-c2cc3cc([N+](=O)[O-])ccc3oc2=O)cs1: > 100 µM
c1ccc(CNn2nnc3ccccc32)cc1: > 100 µM
Cc1ccc(C2=C(c3ccccc3)C(Br)(c3ccc(C)cc3)C(c3ccccc3)=C2c2ccc(C)cc2)cc1: > 100 µM
COC1=CC(=O)c2nc(-c3cccc(C)n3)[nH]c2C1=O: > 100 µM
NC(N)=NCCC[C@H](N)C(=O)NCC(=O)N[C@@H](CC(=O)O)c1ncc(NC(=O)C(F)(F)F)o1: > 25 µM
NC(Cc1ccccc1)C(=O)N[C@H]1c2ccsc2/C(=N/O)[C@H]1O (some centres undefined): > 100 µM
CC(=O)/C(C)=N/NC(=O)c1ccccc1O: > 100 µM
COc1ccc(C(=C(Cl)c2ccccc2)c2ccc(OC)cc2)cc1: > 100 µM
CC1(C)NC2C(=O)c3c([nH]c4ccccc34)[C@]3(C)CCC1CC23 (some centres undefined): > 100 µM
